# TESTED_TARGET: Bifunctional epoxide hydrolase 2 (Homo sapiens)
# TEST_SUMMARY: sEH inhibitor concentration-response potency, dose response, biochemical, human sEH, fluorescence, Infinite200 (AID 1026)
# RUN_PARAMETERS: recombinant human sEH, fluorogenic substrate, at 0.2 µM, hits give high values
RECORDED_ENDPOINT: inhibition (%)
// return numeric value only (unit: %, not printed)

Worked examples, 3 compounds total:
COMPOUND: CCOc1ccc(NC(=O)N2CCC(c3ccc(C)cc3)C2)cc1 (stereo not given)
inhibition / %: 50.5

COMPOUND: CCCCOc1cccc(/C=N/NC(=O)c2csc(C)c2C)c1
inhibition / %: 60.7

COMPOUND: O=C(NCC1CCCC(CNC(=O)N2CCc3ccccc32)C1)N1CCc2ccccc21 (stereo not given)
inhibition / %: 60.4

Given the entry O=C(Nc1ccc(Cl)c(C(F)(F)F)c1)C1CCCN(S(=O)(=O)c2cnc[nH]2)C1 (stereo not given) , report its measured inhibition.
72.5

COc1ccc(NC(=O)N2CCCC(c3nc(-c4ccc(C(C)C)cc4)no3)C2)cc1 (stereo not given) , same question.
64.5

`CC(C)c1ccc(NC(=O)N2CCC(c3nc4ccccc4o3)CC2)cc1` , same question.
66.3

COc1ccc(CNC(=O)C2CCC(CNS(=O)(=O)c3cccc4nsnc34)CC2)cc1 (stereo not given) , same question.
74.4

`O=C(NCc1ccccc1Cl)c1ccc(Cn2cc(C(F)(F)F)ccc2=O)cc1` , same question.
52.6

`COc1ccc(/C=N/NC(=O)c2ccc(COc3ccccc3Cl)o2)cc1` , same question.
55.4

CC1CC(C)CN(C(=O)c2ccc3c(=O)n(Cc4ccc5c(c4)OCO5)c(=S)[nH]c3c2)C1 (stereo not given) , same question.
54.3
